- Experimental System: T1, human calcitonin receptor (human, UniProt P30988 25-474)
- T1 sequence (looked up): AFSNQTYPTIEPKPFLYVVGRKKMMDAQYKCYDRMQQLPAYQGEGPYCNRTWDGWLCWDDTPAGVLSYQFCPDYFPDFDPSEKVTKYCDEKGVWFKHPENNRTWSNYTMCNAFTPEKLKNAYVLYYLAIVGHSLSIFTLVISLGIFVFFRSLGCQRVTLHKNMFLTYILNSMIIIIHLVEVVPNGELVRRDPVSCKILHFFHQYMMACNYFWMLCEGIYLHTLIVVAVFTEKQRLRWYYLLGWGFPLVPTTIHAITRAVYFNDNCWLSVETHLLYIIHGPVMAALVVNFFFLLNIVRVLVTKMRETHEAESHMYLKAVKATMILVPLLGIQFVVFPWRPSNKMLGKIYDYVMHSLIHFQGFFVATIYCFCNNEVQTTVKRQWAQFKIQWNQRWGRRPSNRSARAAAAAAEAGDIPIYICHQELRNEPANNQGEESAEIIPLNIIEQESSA
- Assay Comment: cell-based or functional assay
Numbered stars: 1 amine (or outer) side, 2 acyl side, 3 side chain; on linkers, the order of the positions; unused ones are H or OH. Bridge positions count the residues as written; N and C are the ends. Side chains are listed from the residue outwards. Ends that are not written are not given here. * marks the point of attachment. C20 diacid = O=C(O)CCCCCCCCCCCCCCCCCCC(=O)*; γGlu = O=C(O)[C@H](CCC(=O)[*:2])N[*:1]
Given measured hCTR funct. EC50 (pM), output T if it is greater than or equal to 1000 pM and F if not.

binder="K([γGlu-γGlu-C20 diacid])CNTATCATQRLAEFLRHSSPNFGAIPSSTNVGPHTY-NH2 (disulfide 2-7 (inferred))" cat=T

Dear colleague, could you confirm whether K([γGlu-γGlu-C20 diacid])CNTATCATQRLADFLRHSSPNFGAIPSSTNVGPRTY-NH2 (disulfide 2-7 (inferred), also called compound 130) has hCTR funct. EC50 (pM) at or above 1000 pM?
T

Then K([γGlu-C20 diacid])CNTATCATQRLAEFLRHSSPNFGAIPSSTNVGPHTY-NH2 (disulfide 2-7 (inferred)) ?
T

Then K([γGlu-γGlu-C20 diacid])CNTATCATQRLASFLRHSSPNFGAIPSSTNVGPETY-NH2 (disulfide 2-7 (inferred), also called compound 120) ?
F

Then K([γGlu-γGlu-C20 diacid])CNTATCATQRLAEFLRHSSNNPGAILSSTNVGPETY-NH2 (disulfide 2-7 (inferred)) ?
T
